variants and their reported protein stability index
B1: SLC35F2 (parent)
chain: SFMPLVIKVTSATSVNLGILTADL

- Variants of: B1
- test: protein stability index of a GFP-peptide fusion (GPS, HEK-293T) (PSI 1-6); higher = more stable;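 also: lentivirally expressed fusions sorted by FACS into six bins by GFP to DsRed ratio, PSI derived from sequencing read proportions per bin multiplied by bin number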
- condition-parameters: c terminus: a fixed tail appended
// no unit, no text: just the number

The examples below pair each entry with its known result.
* L17F | 2.72
* V9D | 1.78
* L5Y | 3.46

Let us examine a further case.
Give its protein stability index value. Item: V15S
3.78
